test: Bidirectional transport across Caco-2 cell monolayers; conditions: human, Caco-2, pH 7.4
readout-type: efflux ratio
Numbers only.

**Q:** Look up efflux ratio for this molecule: CNC(=O)[C@@H](NC(=O)[C@](O)(Cc1ccccc1)CN(Cc1ccc(-c2ccccn2)cc1)NC(=O)[C@@H](NC(=O)OC)C(C)(C)C)C(C)(C)C [Compound 11]
**A:** 7.6

* * *

test: Transport; conditions: rat, pH 7.4
readout-type: Papp at 90 min

**Q:** Given the entry CNC(=O)[C@@H](NC(=O)[C@](O)(Cc1ccccc1)CN(Cc1ccc(-c2ccccn2)cc1)NC(=O)[C@@H](NC(=O)OC)C(C)(C)C)C(C)(C)C [Compound 11] , report its measured Papp at 90 min.
**A:** < 80 nm/s

Hello, the source for this data is paper PMC3210832, in case you need it.
